Molecular target: SARS-CoV nsp10/nsp16 2'O-MTase (Severe acute respiratory syndrome coronavirus)
Assay: biochemical
Assay type: biochemical
Conditions: read-out: IC50 2'O-MTase activity of nsp10/nsp16
MEASURED PARAMETER: IC50 (µM)
Answers are plain numbers, in µM.

Task item: Can you look up the measured IC50 of Nc1ncnc2c1ncn2[C@@H]1O[C@H](CSCC[C@H](N)C(=O)O)[C@@H](O)[C@H]1O for me?
Reply: 12

###

Molecular target: SARS-CoV nsp14 N7-MTase (Severe acute respiratory syndrome coronavirus)
Experiment: biochemical
Type: biochemical
Settings: read-out: IC50 N7-MTase activity of nsp14
MEASURED PARAMETER: pIC50
One number for each entry, as −log10 of the molar value.

Task item: For SARS-CoV nsp14 N7-MTase (Severe acute respiratory syndrome coronavirus), provide pIC50 of Nc1ncnc2c1ncn2[C@@H]1O[C@H](CSCC[C@H](N)C(=O)O)[C@@H](O)[C@H]1O [AdoHcy, S-adenosyl-l-homocysteine] please.
Reply: 4.80
